- Test system: HCT-116 cell line
- Assay protocol: Inhibition of cell growth, tetrazolium salt (MTT) assay
- Assay type: cell-based
- Conditions used: 0.25 μM compound; HCT-116; Table 3
Recorded HCT-116 % Inhibition at 0.25 μM split into classes group 1: < 20%; group 2: ≥ 20% and < 30%; group 3: ≥ 30%

Sample answers from the record:
Nc1nc(NC2CCN(S(=O)(=O)c3cc(OCC(F)(F)F)ccc3OCC(F)(F)F)CC2)sc1C(=O)c1c(F)cccc1F [Example P54]; group 2
N#Cc1ccccc1S(=O)(=O)N1CCC(Nc2nc(N)c(C(=O)c3c(F)cccc3F)s2)CC1 [Example P48]; group 3
COC(=O)c1ccccc1S(=O)(=O)N1CCC(Nc2nc(N)c(C(=O)c3c(F)cccc3F)s2)CC1 [Example P28]; group 2

Category of Nc1nc(NC2CCN(S(=O)(=O)c3cccc([N+](=O)[O-])c3)CC2)sc1C(=O)c1c(F)cccc1F [Example P11] , please.
group 2

What do you get for CSc1nccc(-c2ccc(S(=O)(=O)N3CCC(Nc4nc(N)c(C(=O)c5c(F)cccc5F)s4)CC3)s2)n1 [Example P72] ?
group 3

---

Below: a set of entries, each annotated with reported CDK2 % Inhibition at 0.03 μM.
- Experimental target: CDK2/Cyclin A (Homo sapiens, UniProt P24941)
- Assay protocol: Inhibition of CDK2/Cyclin A Retinoblastoma Kinase Activity
- Type: biochemical
- Conditions used: at 0.03 μM
Please respond with the number in % and leave the unit unwritten.

Nc1nc(NC2CCN(C(=O)c3c(F)cccc3F)CC2)sc1C(=O)c1c(F)cccc1F [Example R105]; 8
COC(=O)CCCCCCCCC(=O)N1CCC(Nc2nc(N)c(C(=O)c3c(F)cccc3F)s2)CC1 [Example R76]; 53
Nc1nc(NC2CCN(C(=O)c3c(F)ccc(F)c3F)CC2)sc1C(=O)c1c(F)cccc1F [Example R37]; 27

So what's the measured CDK2 % Inhibition at 0.03 μM for this one? Nc1nc(NC2CCN(C(=O)c3c(F)cc(F)cc3F)CC2)sc1C(=O)c1c(F)cccc1F [Example R53]
24

---

Reported CDK4 % Inhibition at 0.03 μM values follow for various molecules
- Experimental target: human CDK4 and genetically truncated (1-264) cyclin D3 (Homo sapiens, UniProt P11802)
- Sequence (P11802 whole entry, the tested form may be a part): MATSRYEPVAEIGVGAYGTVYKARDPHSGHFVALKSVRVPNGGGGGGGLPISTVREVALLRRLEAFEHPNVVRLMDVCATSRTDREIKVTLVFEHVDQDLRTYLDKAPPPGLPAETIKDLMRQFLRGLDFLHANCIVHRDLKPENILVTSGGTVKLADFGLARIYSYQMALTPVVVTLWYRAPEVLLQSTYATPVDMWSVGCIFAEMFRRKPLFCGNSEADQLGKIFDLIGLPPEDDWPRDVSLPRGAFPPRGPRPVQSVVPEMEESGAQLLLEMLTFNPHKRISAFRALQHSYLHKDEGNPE
- Sequence (P30281 1-264 partner): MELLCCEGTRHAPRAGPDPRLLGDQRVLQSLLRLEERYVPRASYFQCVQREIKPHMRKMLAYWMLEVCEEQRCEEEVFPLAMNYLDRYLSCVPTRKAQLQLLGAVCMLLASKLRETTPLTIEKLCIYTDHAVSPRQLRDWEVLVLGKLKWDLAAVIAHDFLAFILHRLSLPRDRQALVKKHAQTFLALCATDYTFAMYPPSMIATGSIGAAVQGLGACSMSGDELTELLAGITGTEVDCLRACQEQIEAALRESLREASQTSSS
- Assay protocol: Inhibition of CDK4/Cyclin D Retinoblastoma Kinase Activity
- Type: biochemical
- Conditions used: 0.03 μM compound; Table 2
Answer in %, number only, no unit symbol.

Here's what some known entries look like.
COC(=O)NC(=O)N1CCC(Nc2nc(N)c(C(=O)c3c(F)cccc3F)s2)CC1; 12
Nc1nc(NC2CCN(C(=O)Nc3ccc(C(F)(F)F)cc3)CC2)sc1C(=O)c1c(F)cccc1F; 10
Cc1ccc(NC(=O)N2CCC(Nc3nc(N)c(C(=O)c4c(F)cccc4F)s3)CC2)c(C)c1; 1

Given CCOC(=O)NC(=O)N1CCC(Nc2nc(N)c(C(=O)c3c(F)cccc3F)s2)CC1 , state its recorded CDK4 % Inhibition at 0.03 μM.
15

---

- Experimental target: human CDK4 and genetically truncated (1-264) cyclin D3 (Homo sapiens, UniProt P11802)
- Assay protocol: Inhibition of CDK4/Cyclin D Retinoblastoma Kinase Activity
- Type: biochemical
- Conditions used: 0.03 μM compound; Table 3
- Description: Cyclin-dependent kinase activity was measured by quantifying the enzyme-catalyzed, time-dependent incorporation of radioactive phosphate from [^32P]ATP or [^33P]ATP into a protein substrate. […] The phosphorylated substrate was then captured on a nitrocellulose or phosphocellulose membrane using a 96-well filtration manifold, and unincorporated radioactivity was removed by repeated washing with 0.85% phosphoric acid. Radioactivity was quantified by exposing the dried membranes to a phosphorimager. […]
A collection of molecules and their measured CDK4 % Inhibition at 0.03 μM
Give the value in % but do not write % after it.

Consider the reported CDK4 % Inhibition at 0.03 μM for these molecules:
Nc1nc(NC2CCN(S(=O)(=O)c3ccc(CBr)cc3)CC2)sc1C(=O)c1c(F)cccc1F [Example P68]; 70
Nc1nc(NC2CCN(S(=O)(=O)c3cccc4nsnc34)CC2)sc1C(=O)c1c(F)cccc1F [Example P62]; 70
Nc1nc(NC2CCN(S(=O)(=O)/C=C/c3ccccc3)CC2)sc1C(=O)c1c(F)cccc1F [Example P26]; 39
Nc1nc(NC2CCN(S(=O)(=O)c3ccc(S(=O)(=O)c4ccc(C(F)(F)F)cn4)s3)CC2)sc1C(=O)c1c(F)cccc1F [Example P43]; 57
Nc1nc(NC2CCN(S(=O)(=O)c3cc(OCC(F)(F)F)ccc3OCC(F)(F)F)CC2)sc1C(=O)c1c(F)cccc1F [Example P54]; 34
Cc1nn(C)c(Cl)c1S(=O)(=O)N1CCC(Nc2nc(N)c(C(=O)c3c(F)cccc3F)s2)CC1 [Example P50]; 35

Which measured CDK4 % Inhibition at 0.03 μM value corresponds to CSc1nccc(-c2ccc(S(=O)(=O)N3CCC(Nc4nc(N)c(C(=O)c5c(F)cccc5F)s4)CC3)s2)n1 [Example P72] ?
61
